Source listed as the supplement of paper PMC12494721.

Can you tell me fold change of Putrescine concentration for the items I'm about to list?
- Test system: Klebsiella aerogenes DSM 30053
- assay name: fold change of Putrescine concentration vs plate DMSO controls (fold change (ratio)); higher = more amine produced, active = hit call of the paper (significant change in both replicates, either direction)
- protocol conditions: incubation time: 27 h, anaerobic, 37 °C
Counter-ions that a name gives are not always drawn.
Number, no unit, nothing else.

Request: Can you look up the measured fold change of Putrescine concentration of CC(C)NCC(O)c1cc(O)cc(O)c1 (stereo unspecified) [Metaproterenol sulfate] (20 µM) for me?
Result: 0.979

Request: Please give the result for CCCCc1oc2ccc(NS(C)(=O)=O)cc2c1C(=O)c1ccc(OCCCN(CCCC)CCCC)cc1 [Dronedarone hydrochloride] (20 µM) too.
Result: 1

Request: Cool, now C[C@@H]1C[C@H]2[C@@H]3C[C@H](F)C4=CC(=O)C=C[C@]4(C)[C@@]3(Cl)[C@@H](O)C[C@]2(C)[C@H]1C(=O)COC(=O)C(C)(C)C [Clocortolone pivalate] (20 µM)
Result: 0.999

Request: Same again, this time with Cc1cc(-n2c(=O)[nH]c(=O)n(C)c2=O)ccc1Oc1ccc(SC(F)(F)F)cc1 [Toltrazuril] (20 µM)
Result: 1

Request: Again, but for CN1CCN2c3ccccc3Cc3ccccc3C2C1 (stereo unspecified) [Mianserine hydrochloride] (20 µM)
Result: 0.98

Request: Now this one: CC(C(=O)O)c1ccc(C(=O)c2ccccc2)s1 (stereo unspecified) [Tiaprofenic acid] (20 µM)
Result: 1.01

Request: Now consider COC(=O)[C@H](c1ccccc1Cl)N1CCc2sccc2C1 [Clopidogrel] (20 µM) and answer again.
Result: 1.02

Request: Can you handle Nc1ncnc2c1ncn2[C@@H]1O[C@H](CO)[C@@H](O)[C@@H]1O [Vidarabine] (20 µM) next?
Result: 1.02

Request: Now the same for O=C(CCCCC(=O)Nc1c(I)cc(I)c(C(=O)O)c1I)Nc1c(I)cc(I)c(C(=O)O)c1I [Iodipamide] (20 µM)
Result: 1.02

Request: Cool, now CCOC(=O)N1CCC(=C2c3ccc(Cl)cc3CCc3cccnc32)CC1 [Loratadine] (20 µM)
Result: 0.999

Request: Then this compound: CC(C)NC[C@@H](O)COc1ccc(CC(N)=O)cc1 [(R,+) Atenolol] (20 µM)
Result: 1.02

Request: Same question, Cc1oncc1C(=O)Nc1ccc(C(F)(F)F)cc1 [Leflunomide] (20 µM) this time
Result: 1.01

Request: Field entry: Cc1cc(NS(=O)(=O)c2ccc(N)cc2)nc(C)n1 [Sulfisomidine] (20 µM)
Result: 0.987

Request: Same question for Cc1cnc(NC(=O)C2=C(O)c3ccccc3S(=O)(=O)N2C)s1 [Meloxicam] (20 µM) please.
Result: 0.995

Request: Also need COc1cc(Nc2c(C#N)cnc3cc(OCCCN4CCN(C)CC4)c(OC)cc23)c(Cl)cc1Cl [Bosutinib] (20 µM) , thanks.
Result: 1

Request: Let us now turn to Cc1cccc(Nc2ccncc2S(=O)(=O)NC(=O)NC(C)C)c1 [Torsemide] (20 µM)
Result: 0.998

Request: Same thing, different compound: N[C@@H](Cc1ccc(O)c(O)c1)C(=O)O [Levodopa] (20 µM)
Result: 1.02

Request: Now give it for CCC(Cc1c(I)cc(I)c(N)c1I)C(=O)O (stereo unspecified) [Iopanoic acid] (20 µM) too.
Result: 0.994

Request: How about Nc1ccc(S(=O)(=O)Nc2nccs2)cc1 [Sulfathiazole] (20 µM) ?
Result: 1.02

Request: Now the compound CC(C)Nc1ncccn1 [Isaxonine] (20 µM)
Result: 1.04

Request: Param item: CC[C@H](C)[C@H](NC(=O)[C@H](Cc1ccc(O)cc1)NC(=O)[C@@H](NC(=O)[C@H](CCCN=C(N)N)NC(=O)[C@@H](N)CC(=O)O)C(C)C)C(=O)N[C@@H](Cc1cnc[nH]1)C(=O)N1CCC[C@H]1C(=O)N[C@@H](Cc1ccccc1)C(=O)O [Angiotensin II (Human) Trifluoroacetic acid salt] (20 µM)
Result: 0.983

Request: Now consider CN1CCOC(c2ccccc2)c2ccccc2C1 (stereo unspecified) [Nefopam hydrochloride] (20 µM) and answer again.
Result: 0.94

Request: And C[N+](C)(C)C[C@H](O)CC(=O)[O-] [Levocarnitine] (20 µM) ?
Result: 1.03

Request: O=C(O)C[C@H](O)C[C@H](O)/C=C/c1c(C2CC2)nc2ccccc2c1-c1ccc(F)cc1 [Pitavastatin calcium] (20 µM)
Result: 1.01

Request: Same for COc1ccnc(C[S+]([O-])c2nc3cc(OC(F)F)ccc3[nH]2)c1OC (stereo unspecified) [Pantoprazole sodium] (20 µM)
Result: 1.01

Request: How about CC(C(=O)O)c1ccc2c(c1)Cc1cccnc1O2 (stereo unspecified) [Pranoprofen] (20 µM) ?
Result: 1.01

Request: Repeat for the following compound: CN(C(=O)CN(CCO)CC(=O)N(C)C(C)(C)Cc1ccccc1)C(C)(C)Cc1ccccc1 [Oxethazaine] (20 µM)
Result: 1

Request: Now consider C[C@]12CC[C@@H]3c4ccc(O)cc4CC[C@H]3[C@@H]1CCC2=O [Estrone] (20 µM) .
Result: 1.02

Request: Follow-up entry: CN(C)CCC=C1c2ccccc2COc2ccccc21 [Doxepin hydrochloride] (20 µM)
Result: 1

Request: Please do the same for CNCCC(Oc1ccccc1OC)c1ccccc1 (stereo unspecified) [Nisoxetine hydrochloride] (20 µM) as well.
Result: 0.978

Request: Check CCCC(=O)Nc1ncnc2c1ncn2[C@@H]1O[C@@H]2COP(=O)(O)O[C@H]2[C@H]1OC(=O)CCC [Bucladesine sodium salt] (20 µM) too.
Result: 0.983

###

Task for the reader: assign each of the following compounds its reported growth.
- System: Clostridium sporogenes DSM 1664
- assay name: growth (OD595) fold change vs plate DMSO controls (fold change (ratio)); higher = more growth
- protocol conditions: incubation time: 27 h, anaerobic, 37 °C
Counter-ions that a name gives are not always drawn.

Request: Given COc1ccc2c(c1)c(CC(=O)OCC(=O)O)c(C)n2C(=O)c1ccc(Cl)cc1 [Acemetacin] (20 µM) , state its recorded growth.
Result: 0.906

Request: Item: CC(=O)O[C@H]1C(=O)[C@@]2(C)[C@H]([C@H](OC(=O)c3ccccc3)[C@]3(O)C[C@H](OC(=O)[C@H](O)[C@@H](NC(=O)c4ccccc4)c4ccccc4)C(C)=C1C3(C)C)[C@]1(OC(C)=O)CO[C@@H]1C[C@@H]2O [Paclitaxel] (20 µM)
Result: 1.04

Request: Record: CN1CCN(C(c2ccccc2)c2ccccc2)CC1 [Cyclizine hydrochloride] (20 µM)
Result: 0.981

Request: Can you check CC(Oc1c(Cl)cccc1Cl)C1=NCCN1 (configuration not stated) [Lofexidine] (20 µM) next?
Result: 1.07

Request: Next up: CN(C)CCCN1c2ccccc2Sc2ccc(C(F)(F)F)cc21 [Triflupromazine hydrochloride] (20 µM)
Result: 1.08

Request: Let us now turn to CC1=C(/C=C/C(C)=C/C=C/C(C)=C\C(=O)O)C(C)(C)CCC1 [Isotretinoin] (20 µM)
Result: 0.96

Request: And COc1cc(C(=O)OCCCN2CCCN(CCCOC(=O)c3cc(OC)c(OC)c(OC)c3)CC2)cc(OC)c1OC [Dilazep dihydrochloride] (20 µM) ?
Result: 1.06

###

- Tested on: Klebsiella aerogenes DSM 30053
- assay name: growth (OD595) fold change vs plate DMSO controls (fold change (ratio)); higher = more growth
- protocol conditions: incubation time: 27 h, anaerobic, 37 °C
Structures can show the parent of a compound that is named as a salt.
measured quantity: growth
// return a plain number; no unit text

Request: Using the record for CN(C)CCC(c1ccc(Cl)cc1)c1ccccn1 (stereo not drawn) [Chlorpheniramine maleate] (20 µM) , report its growth.
Result: 0.719

Request: Then CC(=O)N[C@@H](CS)C(=O)O [Acetylcysteine] (20 µM) ?
Result: 0.967

Request: Would you kindly repeat that for O=C(NC1CCN(CCCCC2(C(=O)NCC(F)(F)F)c3ccccc3-c3ccccc32)CC1)c1ccccc1-c1ccc(C(F)(F)F)cc1 [Lomitapide] (20 µM) ?
Result: 1.06

Request: Try the compound CCCNC(C)C(=O)Nc1ccccc1C (stereo not drawn) [Prilocaine hydrochloride] (20 µM)
Result: 1.02

Request: Also, CCCc1ncc(C[n+]2ccccc2C)c(N)n1 [Amprolium hydrochloride] (20 µM) please.
Result: 0.982

Request: Try this compound too: CC(=O)O[C@]1(C(C)=O)CC[C@H]2[C@@H]3C=C(Cl)C4=CC(=O)CC[C@]4(C)[C@H]3CC[C@@]21C [Chlormadinone acetate] (20 µM)
Result: 0.994

Request: Ok, now NC(=O)N1c2ccccc2C=Cc2ccccc21 [Carbamazepine] (20 µM)
Result: 1.01

Request: Again, but for CN1CCOC(c2ccccc2)c2ccccc2C1 (stereo not drawn) [Nefopam hydrochloride] (20 µM)
Result: 0.963
